Reported Kd values are given for each entry in this list.
Target: HLA-B*58:01
Test: IEDB peptide-MHC binding, purified MHC/direct/fluorescence; filed as Kd, often an IC50 or EC50 that approximates it; bounds were set here for any values at or beyond the usual limits of such assays
Conditions: source organism: Mammarenavirus juninense

# sequence content, system, recorded measurement
records = [
    ("GKLDPTNTL", "HLA-B*58:01", "≥ 20 µM"),
]

Read the next record carefully.
q: What value of Kd on HLA-B*58:01 does YAKKFKTGM have?
a: ≥ 20 µM

* * *

Target: HLA-B*35:01
Experiment: IEDB peptide-MHC binding, purified MHC/direct/fluorescence; filed as Kd, often an IC50 or EC50 that approximates it; bounds were set here for any values at or beyond the usual limits of such assays
Settings: source organism: Yellow fever virus
experimental endpoint: Kd

q: What value of Kd on HLA-B*35:01 does AATIRVLAL have?
a: ≥ 20 µM
